tested on: S6K1; construct: gene RPS6KB1; conditions: Compound Concentration (nM):1000;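 note: KINOMEscan scanMAX binding as percent activity remaining versus control; lower means stronger binding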
// boundary case: Percent Control equal to 90% maps to FALSE; strictly smaller maps to TRUE

I wonder whether C[C@@H](Oc1cc(-n2cnc3ccc(OC4CCN(C)CC4)cc32)sc1C(N)=O)c1ccccc1Cl [GSK579289A] has Percent Control below 90%. Can you tell?
TRUE

I wonder whether Cl.O=C(Nc1ccc(Oc2ccc3[nH]c(NC(=O)c4ccccc4)nc3c2)cc1)Nc1cc(C(F)(F)F)ccc1F [GW709042A] has Percent Control below 90%. Can you tell?
TRUE

I wonder whether COc1cc(C=NNc2ncnc3c2cnn3-c2ccccc2)ccc1O [GW513184X] has Percent Control below 90%. Can you tell?
FALSE

I wonder whether Cc1cc(O)cc(C)c1/C=C/c1cncc(C(N)=O)c1 [GW435821X] has Percent Control below 90%. Can you tell?
FALSE

I wonder whether C/C(Nc1ccc(S(N)(=O)=O)cc1)=C1/C(=O)Nc2ccccc21 [GW335962X] has Percent Control below 90%. Can you tell?
TRUE

I wonder whether COC(=O)Nc1nc2ccc(Oc3ccc(NC(=O)Nc4cc(C(F)(F)F)ccc4F)cc3)cc2s1.Cl [GW693917A] has Percent Control below 90%. Can you tell?
TRUE

I wonder whether COc1cc2ncnc(Nc3ccc4c(cnn4Cc4ccccc4)c3)c2cc1OC.Cl [GW282449A] has Percent Control below 90%. Can you tell?
FALSE

I wonder whether NS(=O)(=O)c1ccc(Nc2ncc(-c3ccccc3)o2)cc1 [GW572399X] has Percent Control below 90%. Can you tell?
FALSE

I wonder whether CCn1c(-c2nonc2N)nc2c(C#CC(C)(C)O)nc(OCCNC)cc21.Cl has Percent Control below 90%. Can you tell?
FALSE

I wonder whether CC1=C(C(=O)Nc2ccc3[nH]ncc3c2)C(c2ccc3ccccc3c2)CC(=O)N1 (stereo not shown) [GSK270822A] has Percent Control below 90%. Can you tell?
TRUE

I wonder whether COc1cc2ncn(-c3cc(O[C@H](C)c4ccccc4Cl)c(C(N)=O)s3)c2cc1OC [GSK237701A] has Percent Control below 90%. Can you tell?
TRUE

I wonder whether COc1ccc2c(-c3ccnc(Nc4cccc(OC(F)(F)F)c4)n3)cnn2n1 [GW810372X] has Percent Control below 90%. Can you tell?
TRUE

I wonder whether CCc1ccc(Oc2nccc(-c3c(-c4ccc(F)cc4)ncn3C3CCNCC3)n2)cc1 has Percent Control below 90%. Can you tell?
FALSE

I wonder whether O=C(Nc1n[nH]c2nc(-c3ccc(O)cc3)c(Br)cc12)C1CC1 has Percent Control below 90%. Can you tell?
FALSE

I wonder whether COc1cc(/C=N/Nc2ncnc3[nH]ncc23)ccc1O [GW578748X] has Percent Control below 90%. Can you tell?
TRUE

I wonder whether NS(=O)(=O)c1ccc(N/N=C2\C(=O)Nc3ccc(Cl)cc32)cc1 [GW280670X] has Percent Control below 90%. Can you tell?
FALSE

I wonder whether COc1ccc2[nH]c3c4[nH]c5ccc(OC)cc5c4c4c(c3c2c1)C(=O)NC4=O [GW296115X] has Percent Control below 90%. Can you tell?
TRUE

I wonder whether CC(C)COC(=O)c1ccc2c(c1)/C(=C/Nc1ccc(S(N)(=O)=O)cc1)C(=O)N2 [GW416981X] has Percent Control below 90%. Can you tell?
TRUE

I wonder whether NS(=O)(=O)c1ccc(N/N=C2\C(=O)Nc3ccc(-c4cnco4)cc32)cc1 has Percent Control below 90%. Can you tell?
FALSE

I wonder whether COc1cccc(-n2ncc3c(N/N=C/c4ccncc4)ncnc32)c1 [GW784752X] has Percent Control below 90%. Can you tell?
FALSE

I wonder whether Cl.c1ccc(Cc2nc3ccc(Nc4ncnc5ccccc45)cc3[nH]2)cc1 [GR269666A] has Percent Control below 90%. Can you tell?
FALSE

I wonder whether Nc1ncnc2occ(-c3ccc(NC(=O)Nc4cc(C(F)(F)F)ccc4F)cc3)c12 [GW770249X] has Percent Control below 90%. Can you tell?
TRUE

----------
Provide the reported Percent Control of each item.
test system: PHKG1; settings: Compound Concentration (nM):1000
Give the value, in units of %, as a plain number.

# query: Percent Control of entry COc1ccc2cc(-c3c(-c4ccncc4)nc(-c4ccc(S(C)(=O)=O)cc4C)n3C)ccc2c1
100

# query: Percent Control of entry COc1cc(C)c(N(C)C(=O)CN(C)C)cc1Nc1nc(Nc2cccc(F)c2C(N)=O)c2cc[nH]c2n1
100

# query: Percent Control of entry CC(C)COC(=O)c1ccc2c(c1)/C(=C/Nc1ccc(S(N)(=O)=O)cc1)C(=O)N2 [GW416981X]
100

# query: Percent Control of entry O=C(Nc1n[nH]c2nc(-c3ccc(O)cc3)c(Br)cc12)C1CC1
100

# query: Percent Control of entry COC(=O)Nc1nc2ccc(Oc3ccc(NC(=O)Nc4cc(C(F)(F)F)ccc4F)cc3)cc2s1.Cl [GW693917A]
100

# query: Percent Control of entry COc1ccc2c(-c3ccnc(Nc4cccc(OC(F)(F)F)c4)n3)cnn2n1 [GW810372X]
100

# query: Percent Control of entry CCS(=O)(=O)c1ccc(OC)c(Nc2ncc(-c3cccc(F)c3)o2)c1 [GW621970X]
100

# query: Percent Control of entry CCn1c(-c2nonc2N)nc2c(C#CC(C)(C)O)nc(OCCNC)cc21.Cl
100

# query: Percent Control of entry O=C1Nc2ccc(C(=O)c3ccco3)cc2C1=Cc1cc(Cl)c(O)c(Cl)c1 [GW406108X]
100

# query: Percent Control of entry CN(C)c1cc2c(Nc3ccc4c(cnn4Cc4ccccc4)c3)ncnc2cn1 [GW282974X]
91

# query: Percent Control of entry Cc1cc(O)cc(C)c1/C=C/c1cncc(C(N)=O)c1 [GW435821X]
100

# query: Percent Control of entry COc1cccc(-c2c[nH]c3c(N/N=C/c4ccncc4)ncnc23)c1 [GW814408X]
100

# query: Percent Control of entry CC1=C(C(=O)Nc2ccc3[nH]ncc3c2)C(c2ccc3ccccc3c2)CC(=O)N1 (stereo not shown) [GSK270822A]
100

# query: Percent Control of entry COc1cc2ncn(-c3cc(O[C@H](C)c4ccccc4Cl)c(C(N)=O)s3)c2cc1OC [GSK237701A]
100

# query: Percent Control of entry COc1cc2ncnc(Nc3ccc4c(cnn4Cc4ccccc4)c3)c2cc1OC.Cl [GW282449A]
100

# query: Percent Control of entry COc1cc(C=NNc2ncnc3c2cnn3-c2ccccc2)ccc1O [GW513184X]
100

# query: Percent Control of entry Cl.O=C(Nc1ccc(Oc2ccc3[nH]c(NC(=O)c4ccco4)nc3c2)cc1)Nc1cc(C(F)(F)F)ccc1F [GW683134A]
100

# query: Percent Control of entry CCc1ccc(Oc2nccc(-c3c(-c4ccc(F)cc4)ncn3C3CCNCC3)n2)cc1
90

# query: Percent Control of entry CN1CCN(C(=O)c2ccc(NC(=O)Nc3ccc(N(C)c4ccnc(Nc5ccc(CS(C)(=O)=O)cc5)n4)cc3)cc2)CC1.Cl [GW830263A]
100

# query: Percent Control of entry COc1cc(/C=N/Nc2ncnc3[nH]ncc23)ccc1O [GW578748X]
100

# query: Percent Control of entry NS(=O)(=O)c1ccc(N/N=C2\C(=O)Nc3ccc(C(=O)NCCc4c[nH]cn4)cc32)cc1 [GW300660X]
100

# query: Percent Control of entry C[C@@H](Oc1cc(-n2cnc3ccc(OC4CCN(C)CC4)cc32)sc1C(N)=O)c1ccccc1Cl [GSK579289A]
86

# query: Percent Control of entry Cl.O=C(Nc1ccc(Oc2ccc3[nH]c(NC(=O)c4ccccc4)nc3c2)cc1)Nc1cc(C(F)(F)F)ccc1F [GW709042A]
100

# query: Percent Control of entry Nc1ncnc2occ(-c3ccc(NC(=O)Nc4cc(C(F)(F)F)ccc4F)cc3)c12 [GW770249X]
100

# query: Percent Control of entry COc1ccc(COc2ccc(Cc3cnc(N)nc3N)cc2OC)cc1 [GW632580X]
100

# query: Percent Control of entry CC1=C(C(=O)Nc2ccc3[nH]ncc3c2)C(c2ccc(Cl)c(Cl)c2)CC(=O)N1 (stereo not shown) [GSK299115A]
100

# query: Percent Control of entry COc1ccccc1-c1cc(/C=C2\C(=O)Nc3ncc(Br)cc32)cc(Br)c1O [GW442130X]
100

# query: Percent Control of entry CN(C)CCNC(=O)Nc1ccc(N(C)c2ccnc(Nc3ccc(CS(C)(=O)=O)cc3)n2)cc1.Cl [GW830900A]
92

----------
Provide the reported Percent Control of each item.
test system: CAMK1G; settings: Compound Concentration (nM):1000
Give the value, in units of %, as a plain number.

# query: Percent Control of entry CN(C)c1cc2c(Nc3ccc4c(cnn4Cc4ccccc4)c3)ncnc2cn1 [GW282974X]
91

# query: Percent Control of entry COc1ccc2[nH]c3c4[nH]c5ccc(OC)cc5c4c4c(c3c2c1)C(=O)NC4=O [GW296115X]
76

# query: Percent Control of entry Cl.O=C(O[C@H]1CN[C@H](C#Cc2cc3ncnc(Nc4ccc5c(cnn5Cc5ccccc5)c4)c3s2)C1)N1CCOCC1 [GSK200398A]
100

# query: Percent Control of entry NS(=O)(=O)c1ccc(N/N=C2\C(=O)Nc3ccc(Cl)cc32)cc1 [GW280670X]
100
